Target: GST-Bicc1-KH (UniProt Q99MQ1)
Sequence (Q99MQ1 whole entry, looked up): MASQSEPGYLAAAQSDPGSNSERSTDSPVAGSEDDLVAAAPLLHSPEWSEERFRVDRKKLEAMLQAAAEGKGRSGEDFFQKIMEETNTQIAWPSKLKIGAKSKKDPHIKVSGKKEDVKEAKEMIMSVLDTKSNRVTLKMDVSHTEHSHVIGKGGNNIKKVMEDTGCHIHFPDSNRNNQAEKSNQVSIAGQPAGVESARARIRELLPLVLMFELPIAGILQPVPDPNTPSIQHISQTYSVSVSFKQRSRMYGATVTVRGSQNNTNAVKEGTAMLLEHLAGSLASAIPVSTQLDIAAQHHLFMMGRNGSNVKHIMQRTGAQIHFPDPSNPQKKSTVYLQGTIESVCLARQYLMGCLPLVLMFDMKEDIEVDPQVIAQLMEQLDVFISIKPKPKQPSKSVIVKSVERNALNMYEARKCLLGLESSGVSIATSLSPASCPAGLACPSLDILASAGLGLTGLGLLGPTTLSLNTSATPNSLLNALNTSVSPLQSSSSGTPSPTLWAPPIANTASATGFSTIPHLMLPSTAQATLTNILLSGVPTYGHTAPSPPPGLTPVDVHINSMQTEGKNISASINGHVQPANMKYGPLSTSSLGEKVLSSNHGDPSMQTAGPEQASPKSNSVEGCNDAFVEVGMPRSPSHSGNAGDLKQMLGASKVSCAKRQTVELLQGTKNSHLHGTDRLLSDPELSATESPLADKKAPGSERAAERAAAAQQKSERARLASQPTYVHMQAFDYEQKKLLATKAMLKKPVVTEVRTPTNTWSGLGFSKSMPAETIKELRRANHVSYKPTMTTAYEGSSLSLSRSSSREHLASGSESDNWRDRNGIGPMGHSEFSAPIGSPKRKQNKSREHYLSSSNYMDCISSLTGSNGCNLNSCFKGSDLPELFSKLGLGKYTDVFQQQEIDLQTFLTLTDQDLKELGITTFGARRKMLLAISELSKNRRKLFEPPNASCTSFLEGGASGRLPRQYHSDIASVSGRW
Experiment: competition EMSA
Conditions: vs labelled 66-110; 200 nM protein; 10 mM Tris-HCl pH 8, 100 mM KCl, 2.5 mM MgCl2, 2.5% glycerol, 1 mM DTT, 1 ug yeast tRNA in 20 uL, on ice 30 min; 1 pmol tagged RNA + 2.5 pmol DNA probe; 5% …
Assign IC50 to each entry below.
Answers are plain numbers, in nM.

GAAAGACGUGACCUGAAUGAUGUGCAUCGGGUCAAGAGAGCAGAA [Dand5 3'-UTR 66-110 competitor] ... 203

Can you give me IC50 for all of these, one by one?
1. GAAAGACGUAAGCUGAAUGAUGUGCAUCGGGUCAAGAGAGCAGAA [66-110 Mut2 (UGAC to UAAG)]
2. UGAAGACGUGACUUCUAUUCGUAUGUGAUAUGUGGAGGUUAAAAA [226-270 8-mer (GCCCUGGG to GACGUGAC)]

Result:
654
392
